System: Wheat head blight
experiment.notes: whole plant or invertebrate
Assay type: cell-based
settings: Triticum aestivum, read-out: Fungicidal activity (%) Wheat head blight
# binarize inhibition at 50 mg/kg: threshold 10% inclusive, high side Fulfilled, low side Not fulfilled

> print(dat)
                                    compound       study.system       category
 1  CC1=NNC(=O)N(NS(=O)(=O)c2cccc(F)c2)C1 [Ia-17]  Wheat head blight      Fulfilled
 2  CC1=NNC(=O)N(NS(=O)(=O)c2cccc3ccccc23)C1 [Ia-8]  Wheat head blight      Fulfilled
 3  CC1=NNC(=O)N(NS(=O)(=O)c2ccc(Cl)cc2)C1 [Ia-21]  Wheat head blight      Fulfilled
 4  CC1=NNC(=O)N(NS(=O)(=O)c2cn(C)c(C)n2)C1 [Ia-32]  Wheat head blight      Fulfilled
 5  CC1=NNC(=O)N(NS(=O)(=O)C2CCCCC2)C1 [Ia-6]  Wheat head blight      Fulfilled
 6         CCS(=O)(=O)NN1CC(C)=NNC1=O [Ia-2]  Wheat head blight      Fulfilled
 7  CC1=NNC(=O)N(NS(=O)(=O)c2ccc(F)cc2F)C1 [Ia-19]  Wheat head blight  Not fulfilled
 8        CC1=NNC(=O)N(NS(C)(=O)=O)C1 [Ia-1]  Wheat head blight      Fulfilled
 9  CC(=O)Nc1ccc(S(=O)(=O)N(N2CC(C)=NNC2=O)S(=O)(=O)c2ccc(NC(C)=O)cc2)cc1 [Ib-8]  Wheat head blight  Not fulfilled
10  CC1=NNC(=O)N(NS(=O)(=O)c2ccccc2F)C1 [Ia-16]  Wheat head blight      Fulfilled
11  CC1=NNC(=O)N(N(S(=O)(=O)c2ccc(C)cc2)S(=O)(=O)c2ccc(C)cc2)C1 [Ib-6]  Wheat head blight      Fulfilled
12  CC1=NNC(=O)N(N(S(=O)(=O)c2cccnc2)S(=O)(=O)c2cccnc2)C1 [Ib-9]  Wheat head blight      Fulfilled
13  CC1=NNC(=O)N(NS(=O)(=O)c2ccc(OC(F)(F)F)cc2)C1 [Ia-27]  Wheat head blight      Fulfilled
14  CCS(=O)(=O)N(N1CC(C)=NNC1=O)S(=O)(=O)CC [Ib-2]  Wheat head blight      Fulfilled
15  CC1=NNC(=O)N(N(S(C)(=O)=O)S(C)(=O)=O)C1 [Ib-1]  Wheat head blight  Not fulfilled
